This document collects pIC50 values reported for UniProtKB P07374.
To interpret pIC50, take it as minus log10 of a concentration measured in moles per litre.

CC(C)(C)c1ccc(C(=O)N/N=C/c2ccccc2O)cc1: 4.43
CC(C)(C)c1ccc(C(=O)NN=Cc2ccc([N+](=O)[O-])cc2)cc1: 4.18
COc1ccc(Br)cc1C=NNC(=O)c1ccc(C(C)(C)C)cc1: 4.19
CC(C)(C)c1ccc(C(=O)N/N=C/c2ccc(Cl)c(O)c2Cl)cc1: 4.41

Req: Return pIC50 (reported value) for this compound: COc1ccc(C=NNC(=O)c2ccc(C(C)(C)C)cc2)c(OC)c1OC
Resp: 4.20

Req: Please report the measured pIC50 for CC(C)(C)c1ccc(C(=O)NN=Cc2ccc(O)c(O)c2)cc1
Resp: 4.10

* * *

Recorded log10(IC50) values (Jack bean urease (Canavalia ensiformis)) are given below.
Heads up: the numbers are on a log10 scale; they represent IC50 in µM.

Req: Consider the compound CCOc1ccc(C=NNC(=O)c2ccc(C(C)(C)C)cc2)c(OC)c1 [Compound 11] . State its measured log10(IC50).
Resp: 1.80

Req: Give log10(IC50) for the following compound: CC(C)(C)c1ccc(C(=O)N/N=C/c2cc(C(C)(C)C)cc(C(C)(C)C)c2O)cc1 [Compound 26]
Resp: 1.69

Req: State its log10(IC50): CC(C)(C)c1ccc(C(=O)NN=Cc2ccc(Cl)cc2Cl)cc1 [Compound 15]
Resp: 1.91

Req: Please give measured log10(IC50) of the following entry: CC(C)(C)c1ccc(C(=O)NN=Cc2cc(C(C)(C)C)c(O)c(C(C)(C)C)c2)cc1 [Compound 16]
Resp: 1.90

* * *

These records show pIC50 for Jack bean urease (Canavalia ensiformis, UniProt P07374).
When answering, recall that pIC50 equals minus log10 of the concentration in mol/L, and write that number alone.

Past entries and their recorded results:
CN(C)c1ccc(C=NNC(=O)c2ccc(C(C)(C)C)cc2)cc1: 4.09
CC(C)(C)c1ccc(C(=O)NN=Cc2cccc(O)c2)cc1: 4.40
COc1ccc(/C=N/NC(=O)c2ccc(C(C)(C)C)cc2)cc1OC: 4.87
CC(C)(C)c1ccc(C(=O)NN=Cc2cc([N+](=O)[O-])ccc2Cl)cc1: 4.20
COc1cc(C=NNC(=O)c2ccc(C(C)(C)C)cc2)cc(OC)c1OC: 4.09

Req: Please report pIC50 with Jack bean urease (Canavalia ensiformis, UniProt P07374) for item CC(C)(C)c1ccc(C(=O)N/N=C/c2ccc(O)cc2)cc1 .
Sequence (P07374 whole entry, looked up): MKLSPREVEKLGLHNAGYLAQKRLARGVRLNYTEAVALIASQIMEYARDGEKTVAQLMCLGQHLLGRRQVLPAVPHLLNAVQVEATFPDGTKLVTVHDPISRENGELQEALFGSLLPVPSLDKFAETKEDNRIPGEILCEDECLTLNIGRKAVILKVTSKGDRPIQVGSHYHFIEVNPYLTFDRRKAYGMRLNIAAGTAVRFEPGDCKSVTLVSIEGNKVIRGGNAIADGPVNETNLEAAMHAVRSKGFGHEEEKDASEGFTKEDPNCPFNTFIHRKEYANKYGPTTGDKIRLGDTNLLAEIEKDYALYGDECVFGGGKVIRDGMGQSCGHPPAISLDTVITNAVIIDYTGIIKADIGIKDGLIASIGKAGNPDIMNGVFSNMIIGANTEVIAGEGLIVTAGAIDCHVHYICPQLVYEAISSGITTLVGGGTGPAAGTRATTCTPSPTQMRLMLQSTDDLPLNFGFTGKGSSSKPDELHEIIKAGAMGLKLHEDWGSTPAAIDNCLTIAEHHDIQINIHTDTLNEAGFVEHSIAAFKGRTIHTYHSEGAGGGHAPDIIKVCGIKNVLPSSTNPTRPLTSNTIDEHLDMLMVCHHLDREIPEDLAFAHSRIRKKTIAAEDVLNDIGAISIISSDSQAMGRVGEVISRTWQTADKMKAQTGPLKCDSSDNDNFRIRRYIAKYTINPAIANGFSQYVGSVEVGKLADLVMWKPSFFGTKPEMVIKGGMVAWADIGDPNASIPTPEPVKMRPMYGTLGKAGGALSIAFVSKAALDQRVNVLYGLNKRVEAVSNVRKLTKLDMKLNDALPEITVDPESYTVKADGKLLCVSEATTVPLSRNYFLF
Resp: 4.29

Req: Look up and report pIC50, with Jack bean urease (Canavalia ensiformis, UniProt P07374) as system, for COc1cc(C=NNC(=O)c2ccc(C(C)(C)C)cc2)ccc1F
Resp: 4.05

* * *

These molecules were tested on Jack bean urease (Canavalia ensiformis, UniProt P07374); log10 of IC50 is the recorded read-out.
The figures below represent log10 of IC50, where IC50 is stated in µM.

CC(C)(C)c1ccc(C(=O)NN=Cc2cc(Cl)cc(Cl)c2O)cc1: 1.44
COc1cccc(/C=N/NC(=O)c2ccc(C(C)(C)C)cc2)c1O: 1.75
COc1cccc(OC)c1C=NNC(=O)c1ccc(C(C)(C)C)cc1: 1.83
CC(C)(C)c1ccc(C(=O)NN=Cc2c3ccccc3cc3ccccc23)cc1: 1.12

Req: Give the observed log10 of IC50 of COc1cc(C=NNC(=O)c2ccc(C(C)(C)C)cc2)ccc1O for Jack bean urease (Canavalia ensiformis, UniProt P07374).
Resp: 2.40

Req: Tell me log10 of IC50 of COc1cc(OC)c(C=NNC(=O)c2ccc(C(C)(C)C)cc2)c(OC)c1 when tested on Jack bean urease (Canavalia ensiformis, UniProt P07374).
Resp: 1.85
